# Tested on: defecation number induced by restraint stress in rats
# run description: Increase of defecation number induced by restraint stress (animal model of irritable bowel syndrome)
# Type: in vivo
# run parameters: rat, oral, 10 mg/kg
Some molecules, each annotated with its measured Suppression rate of defecation number (%).
The response must be a number in % with no trailing unit.

Look over these answered cases.
{"molecule": "CN1C(=O)CN=C(c2ccccc2)c2cc(Cl)ccc21", "quantitative result": 36}
{"molecule": "CN(C)CCC=C1c2ccccc2CCc2ccccc21", "quantitative result": 17}
{"molecule": "CNCCC(Oc1ccc(C(F)(F)F)cc1)c1ccccc1 (stereo not shown)", "quantitative result": 24}

Now for a further molecule.
So for O=C1CC2(CCCC2)CC(=O)N1CCCCN1CCN(c2ncccn2)CC1 , the logged Suppression rate of defecation number (%) turned out to be 12
